EXPERIMENTAL_SYSTEM: Alpha glucosidase (Homo sapiens, UniProt O43451+P10253+P14410+Q2M2H8)
ASSAY_SUMMARY: Inhibition of alpha-glucosidase (unknown origin) using p-nitrophenyl glycoside as substrate treated 20 mins post substrate addition measured for 1 min by spectrophotometric analysis
Type: protein assay
ATTRIBUTE_MEASURED: IC50

These recorded examples may help you get a feel for the data.
Cc1cc(O)cc(O)c1C(=O)O[C@]1(C)C(=O)C=C2C=C(/C=C/CO)OC=C2C1=O :: > 200 µM
Cc1cc(O)cc(O)c1C(=O)O[C@H]1[C@@H]2COC(/C=C/C(=O)O)=CC2=CC(=O)[C@@]1(C)O :: > 200 µM
Cc1cc(O)cc(O)c1C(=O)O[C@H]1C2=COC(/C=C/CO)=CC2=CC(=O)[C@@]1(C)O :: > 200 µM
COC(=O)CCC1=CC2=CC(=O)[C@@](C)(O)[C@@H](OC(=O)c3c(C)cc(O)cc3O)[C@@H]2CO1 :: > 200 µM
COC(=O)C1=CC2=CC(=O)[C@@](C)(O)[C@@H](OC(=O)c3c(C)cc(O)cc3O)[C@@H]2CO1 :: > 200 µM

stdin: Look up IC50 for this molecule: Cc1cc(O)cc(O)c1C(=O)O[C@H]1[C@@H]2COC(/C=C/C=O)=CC2=CC(=O)[C@@]1(C)O
stdout: 22.9 µM

stdin: # repeat for Cc1cc(O)cc(O)c1C(=O)O[C@H]1[C@@H]2COC(/C=C/CO)=CC2=CC(=O)[C@@]1(C)O [PINOPHILIN B]
stdout: > 200 µM

stdin: # repeat for Cc1cc(O)cc(O)c1C(=O)O[C@H]1[C@@H]2COC(/C=C/[C@H](C)O)=CC2=CC(=O)[C@@]1(C)O
stdout: 78.6 µM

stdin: # repeat for C/C=C/C1=CC2=CC(=O)[C@@](C)(OC(=O)c3c(C)cc(O)cc3O)C(=O)C2=CO1
stdout: > 200 µM

stdin: # repeat for C/C=C/C1=CC2=CC(=O)[C@@](C)(O)[C@@H](OC(=O)c3c(C)cc(O)cc3O)[C@@H]2CO1
stdout: > 200 µM

stdin: # repeat for COC(OC)C1=CC2=CC(=O)[C@@](C)(O)[C@@H](OC(=O)c3c(C)cc(O)cc3O)[C@@H]2CO1
stdout: > 200 µM

###

Test system: Vibrio anguillarum
ASSAY_SUMMARY: Antibacterial activity against Vibrio anguillarum after 18 hrs by broth dilution method
Assay type: functional
Known MIC of a selection of molecules

COC(=O)CCC1=CC2=CC(=O)[C@@](C)(O)[C@@H](OC(=O)c3c(C)cc(O)cc3O)[C@@H]2CO1 :: > 8.28 µg/mL
Cc1cc(O)cc(O)c1C(=O)O[C@H]1[C@@H]2COC(/C=C/C=O)=CC2=CC(=O)[C@@]1(C)O :: 0.26 µg/mL

Here's the next entry for you.
stdin: Look up MIC for this molecule: Cc1cc(O)cc(O)c1C(=O)O[C@H]1[C@@H]2COC(/C=C/C(=O)O)=CC2=CC(=O)[C@@]1(C)O
stdout: > 8.28 µg/mL

###

Test system: HeLa
ASSAY_SUMMARY: Cytotoxicity against human HeLa cells by SRB assay
Type: functional, cell-based
The source made the active and inactive calls. No cut-off for these calls is given here.
ATTRIBUTE_MEASURED: Activity

C/C=C/C1=CC2=CC(=O)[C@@](C)(O)[C@@H](OC(=O)c3c(C)cc(O)cc3O)[C@@H]2CO1 :: inactive
COC(=O)C1=CC2=CC(=O)[C@@](C)(O)[C@@H](OC(=O)c3c(C)cc(O)cc3O)[C@@H]2CO1 :: inactive
Cc1cc(O)cc(O)c1C(=O)O[C@H]1C2=COC(/C=C/CO)=CC2=CC(=O)[C@@]1(C)O :: inactive
C/C=C/C1=CC2=CC(=O)[C@@](C)(OC(=O)c3c(C)cc(O)cc3O)C(=O)C2=CO1 :: inactive
